Assayed system: granuphilin C2A domain (Homo sapiens)
Method notes: FRET competition binding assay: IP6 titrated into vesicle-bound C2A
Condition info: PM(−)PIPx vesicles, 125 μM accessible lipid, 1 μM C2A
Property: IC50 (µM)

{"columns": ["Compound", "Assay result"],
 "data": [
  ["O=P(O)(O)O[C@H]1[C@H](OP(=O)(O)O)[C@@H](OP(=O)(O)O)[C@H](OP(=O)(O)O)[C@@H](OP(=O)(O)O)[C@H]1OP(=O)(O)O", 37]
]}

###

Assayed system: granuphilin C2A domain (Homo sapiens)
Method notes: Intrinsic Trp fluorescence titration of IP6 or IP3 into free C2A domain
Type: binding
pKi: −log10 of the molar value.
Property: pKi

{"columns": ["Compound", "Assayed system", "Assay result"],
 "data": [
  ["O=P(O)(O)O[C@@H]1[C@H](O)[C@H](O)[C@@H](OP(=O)(O)O)[C@H](OP(=O)(O)O)[C@H]1O [IP3]", "granuphilin C2A domain (Homo sapiens)", 4.10],
  ["O=P(O)(O)O[C@H]1[C@H](OP(=O)(O)O)[C@@H](OP(=O)(O)O)[C@H](OP(=O)(O)O)[C@@H](OP(=O)(O)O)[C@H]1OP(=O)(O)O [IP6]", "granuphilin C2A domain (Homo sapiens)", 5.74]
]}

###

Assayed system: granuphilin C2A domain (Homo sapiens, UniProt Q96C24)
Method notes: FRET competition binding assay: IP6 titrated into vesicle-bound C2A
Condition info: PC/PS/dPE vesicles, 125 μM accessible lipid, 1 μM C2A

{"columns": ["Compound", "Result units", "IC50"],
 "data": [
  ["O=P(O)(O)O[C@H]1[C@H](OP(=O)(O)O)[C@@H](OP(=O)(O)O)[C@H](OP(=O)(O)O)[C@@H](OP(=O)(O)O)[C@H]1OP(=O)(O)O", "µM", 10]
]}

These entries and their values trace back to paper PMC4085138.
